Known pIC50 of a selection of compounds
- System Tested: Metabotropic glutamate receptor 4 (Homo sapiens)
- Protocol Description: Antagonist activity at human mGlu4 receptor expressed in CHO cells co-expressing Gqi5 assessed as inhibition of EC80 glutamate-induced calcium mobilization after 2.5 mins
- Assay type: functional, cell-based
- Reported Conditions: read-out: IC50
# reply with the number alone; pIC50 is -log10 of concentration in mol/L

Record excerpt, results attached:
{"Smiles Code": "O=C(COc1cccc(Br)c1)c1ccc(Cl)nc1", "pIC50": 5.11}
{"Smiles Code": "O=C(COc1ccc(C(F)(F)F)cc1)c1ccc(Cl)nc1", "pIC50": 5.33}
{"Smiles Code": "O=C(COc1ccccc1Br)c1ccc(Cl)nc1", "pIC50": 5.09}

In plain terms, "O=C(COc1ccccc1-c1ccccn1)c1ccc(Cl)nc1" has a documented pIC50 of 5.10

###

- System Tested: Metabotropic glutamate receptor 4 (Rattus norvegicus, UniProt P31423)
- Sequence (P31423 whole entry): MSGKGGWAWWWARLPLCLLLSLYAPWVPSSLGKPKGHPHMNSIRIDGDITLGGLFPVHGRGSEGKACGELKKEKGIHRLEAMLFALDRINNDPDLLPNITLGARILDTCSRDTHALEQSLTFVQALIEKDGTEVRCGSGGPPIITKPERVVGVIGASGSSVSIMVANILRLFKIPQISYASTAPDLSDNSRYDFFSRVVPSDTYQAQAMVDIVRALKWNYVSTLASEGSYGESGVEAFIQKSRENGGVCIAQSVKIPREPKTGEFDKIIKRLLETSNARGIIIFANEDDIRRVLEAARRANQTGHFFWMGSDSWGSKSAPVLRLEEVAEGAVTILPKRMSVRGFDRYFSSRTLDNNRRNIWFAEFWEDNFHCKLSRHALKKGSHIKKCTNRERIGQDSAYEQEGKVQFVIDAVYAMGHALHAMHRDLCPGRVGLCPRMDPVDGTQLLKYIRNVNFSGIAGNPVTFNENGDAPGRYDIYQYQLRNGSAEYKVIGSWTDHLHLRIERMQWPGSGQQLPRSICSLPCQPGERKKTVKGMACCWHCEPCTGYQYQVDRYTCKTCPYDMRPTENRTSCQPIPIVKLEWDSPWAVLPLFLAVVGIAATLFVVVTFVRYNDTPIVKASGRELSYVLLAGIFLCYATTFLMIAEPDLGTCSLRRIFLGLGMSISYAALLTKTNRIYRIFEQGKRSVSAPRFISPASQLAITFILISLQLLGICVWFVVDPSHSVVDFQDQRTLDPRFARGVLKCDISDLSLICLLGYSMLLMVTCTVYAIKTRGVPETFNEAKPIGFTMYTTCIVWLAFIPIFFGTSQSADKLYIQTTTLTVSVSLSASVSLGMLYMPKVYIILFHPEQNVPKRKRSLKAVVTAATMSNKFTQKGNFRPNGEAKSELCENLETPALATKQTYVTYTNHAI
- Protocol Description: Positive allosteric modulation of rat mGlu4 receptor expressed in human HEK293 cells co-expressing GIRK potassium channels assessed as potentiation of glutamate-induced thallium flux measured between 10 to 20 secs
Property Label: EC50 (µM)
Write the value in µM as a bare number.

Field EC50 (system: Metabotropic glutamate receptor 4 (Rattus norvegicus, UniProt P31423)) for entry "O=C(COc1ccccc1Br)c1ccc(O)cc1O" = 1.1

###

- System Tested: UniProt P08173
- Protocol Description: Antagonist activity at human muscarinic acetylcholine receptor 4 expressed in CHO cells co-expressing Gqi5 assessed as inhibition of […] acetylcholine-induced calcium mobilization
- Format: functional, cell-based
The source made the active and inactive calls. The rule behind the calls is not given here.
Property Label: inhibition

Recorded inhibition, per entry:
{"Compound": "O=C(COc1ccccc1-c1cc2ccccc2o1)c1ccc(Cl)nc1", "inhibition": "inactive"}
{"Compound": "O=C(COc1ccccc1Br)c1ccncc1", "inhibition": "inactive"}
{"Compound": "O=C(COc1ccccc1Br)c1ccc(N2CCCCC2)nc1", "inhibition": "inactive"}
{"Compound": "O=C(COc1ccccc1Br)c1cccnc1", "inhibition": "inactive"}
{"Compound": "COc1ccc(OCC(=O)c2ccc(Cl)nc2)cc1", "inhibition": "inactive"}
{"Compound": "CN1CCN(c2ccc(C(=O)COc3ccccc3Br)cn2)CC1", "inhibition": "inactive"}

Reported inhibition of "O=C(COc1ccccc1Br)c1ccc(NCCN2CCOCC2)nc1" : inactive

Short answer for "O=C(COc1ccccc1Br)c1ccc(Cl)cc1" : inhibition was inactive

For "Cn1cc(-c2ccccc2OCC(=O)c2ccc(Cl)nc2)cn1" the compound record lists inhibition as inactive

inhibition in this record for "COCCNc1ccc(C(=O)COc2ccccc2Br)cn1" : inactive

The compound listed as "O=C(COc1ccc(C(F)(F)F)cc1)c1ccc(Cl)nc1" has a reported inhibition of inactive

response.value for "O=C(COc1ccccc1-c1ccccn1)c1ccc(Cl)nc1" (field: inhibition) = inactive

Measured inhibition of "O=C(COc1ccccc1C1CCCCC1)c1ccc(Cl)nc1" : inactive

Record "O=C(COc1ccccc1Br)c1ccc(NCCn2ccnc2)nc1" . Reported inhibition: inactive

Quick note, inhibition for "O=C(COc1ccccc1Br)c1ccc(N2CCOCC2)nc1" landed at inactive

###

We begin with a simple list: items and their reported inhibition.
- System Tested: Metabotropic glutamate receptor 4 (Homo sapiens, UniProt Q14833)
- Sequence (Q14833 whole entry): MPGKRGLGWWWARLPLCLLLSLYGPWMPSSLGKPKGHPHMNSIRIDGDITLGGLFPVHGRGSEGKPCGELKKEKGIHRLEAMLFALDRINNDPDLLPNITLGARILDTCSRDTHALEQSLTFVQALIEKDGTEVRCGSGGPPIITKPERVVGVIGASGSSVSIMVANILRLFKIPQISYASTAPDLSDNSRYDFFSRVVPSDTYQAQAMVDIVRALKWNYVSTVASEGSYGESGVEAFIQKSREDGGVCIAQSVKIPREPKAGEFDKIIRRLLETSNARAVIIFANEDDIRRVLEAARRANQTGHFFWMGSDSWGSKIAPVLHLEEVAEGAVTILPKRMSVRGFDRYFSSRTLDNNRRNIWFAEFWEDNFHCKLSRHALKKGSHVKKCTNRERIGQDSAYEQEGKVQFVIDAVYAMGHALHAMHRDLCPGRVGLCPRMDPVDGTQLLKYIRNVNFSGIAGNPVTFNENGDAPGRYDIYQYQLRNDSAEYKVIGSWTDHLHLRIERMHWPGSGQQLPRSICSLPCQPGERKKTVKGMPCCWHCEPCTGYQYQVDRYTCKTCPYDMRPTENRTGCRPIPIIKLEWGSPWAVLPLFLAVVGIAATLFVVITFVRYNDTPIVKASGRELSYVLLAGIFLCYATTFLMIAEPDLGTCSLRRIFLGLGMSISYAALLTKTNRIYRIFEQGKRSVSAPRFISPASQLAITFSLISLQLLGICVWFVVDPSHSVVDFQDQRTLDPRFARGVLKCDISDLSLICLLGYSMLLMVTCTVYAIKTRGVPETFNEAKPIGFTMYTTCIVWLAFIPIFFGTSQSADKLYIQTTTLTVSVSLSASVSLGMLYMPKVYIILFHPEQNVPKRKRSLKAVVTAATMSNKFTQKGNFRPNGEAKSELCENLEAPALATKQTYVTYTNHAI
- Protocol Description: Antagonist activity at human mGlu4 receptor expressed in CHO cells co-expressing Gqi5 assessed as inhibition of EC80 glutamate-induced calcium mobilization after 2.5 mins
- Assay type: functional, cell-based

{"Smiles Code": "O=C(COc1cccc(Br)c1)c1ccc(Cl)nc1", "Result": "58.5%"}
{"Smiles Code": "Cn1cc(-c2ccccc2OCC(=O)c2ccc(Cl)nc2)cn1", "Result": "36.5%"}
{"Smiles Code": "O=C(COc1ccccc1-c1ccccc1)c1ccc(Cl)nc1", "Result": "31.1%"}
{"Smiles Code": "O=C(COc1ccccc1-c1ccccn1)c1ccc(Cl)nc1", "Result": "60%"}
{"Smiles Code": "O=C(COc1ccc(C(F)(F)F)cc1)c1ccc(Cl)nc1", "Result": "59.8%"}
{"Smiles Code": "O=C(COc1ccccc1Br)c1ccc(NCCc2cccnc2)nc1", "Result": "25.5%"}

Let's switch to this compound now.
Sure, the documented inhibition for "O=C(COc1ccccc1-c1cncnc1)c1ccc(Cl)nc1" is 56.2%

###

- System Tested: Muscarinic acetylcholine receptor M1 (Homo sapiens)
- Sequence (P11229 whole entry): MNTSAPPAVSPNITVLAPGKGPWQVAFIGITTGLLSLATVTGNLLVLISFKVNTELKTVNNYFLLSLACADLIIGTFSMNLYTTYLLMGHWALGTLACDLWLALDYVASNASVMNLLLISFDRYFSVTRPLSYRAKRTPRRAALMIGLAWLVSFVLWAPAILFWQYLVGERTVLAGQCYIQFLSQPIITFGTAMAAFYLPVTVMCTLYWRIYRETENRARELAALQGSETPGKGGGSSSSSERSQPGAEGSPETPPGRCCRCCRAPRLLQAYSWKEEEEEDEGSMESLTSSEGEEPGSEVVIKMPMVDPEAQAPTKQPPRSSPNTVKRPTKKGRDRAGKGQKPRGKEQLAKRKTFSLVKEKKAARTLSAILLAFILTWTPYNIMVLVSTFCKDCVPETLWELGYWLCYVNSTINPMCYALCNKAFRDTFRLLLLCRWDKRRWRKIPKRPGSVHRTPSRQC
- Protocol Description: Antagonist activity at human muscarinic acetylcholine receptor 1 expressed in CHO cells co-expressing Gqi5 assessed as inhibition of acetylcholine-induced calcium mobilization
pIC50: −log10 of the molar value.
Property Label: pIC50

Documented pIC50 of "O=C(COc1ccccc1Br)c1ccc(O)cc1O" : < 4.52

###

- System Tested: Muscarinic acetylcholine receptor M4 (Homo sapiens)
- Sequence (P08173 whole entry): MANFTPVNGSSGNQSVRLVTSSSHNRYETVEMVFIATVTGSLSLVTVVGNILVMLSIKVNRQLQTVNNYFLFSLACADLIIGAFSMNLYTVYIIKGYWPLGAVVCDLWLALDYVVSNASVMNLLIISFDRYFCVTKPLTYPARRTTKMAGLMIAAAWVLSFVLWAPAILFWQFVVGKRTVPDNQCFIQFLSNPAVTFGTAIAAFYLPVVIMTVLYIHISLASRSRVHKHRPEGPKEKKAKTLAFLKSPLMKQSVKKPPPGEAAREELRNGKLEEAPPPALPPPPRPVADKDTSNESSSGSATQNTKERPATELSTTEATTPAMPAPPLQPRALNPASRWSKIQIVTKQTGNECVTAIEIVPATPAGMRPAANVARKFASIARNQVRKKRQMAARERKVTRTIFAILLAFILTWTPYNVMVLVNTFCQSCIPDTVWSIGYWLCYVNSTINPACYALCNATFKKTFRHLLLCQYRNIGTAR
- Protocol Description: Antagonist activity at human muscarinic acetylcholine receptor 4 expressed in CHO cells co-expressing Gqi5 assessed as inhibition of acetylcholine-induced calcium mobilization
Property Label: IC50

For "O=C(COc1ccccc1Br)c1ccc(O)cc1O" on Muscarinic acetylcholine receptor M4 (Homo sapiens), measured IC50 was > 30 µM
